Hey, just so you know, these numbers are from paper PMC3916150.

System: UniProt P19793
Sequence (P19793 whole entry): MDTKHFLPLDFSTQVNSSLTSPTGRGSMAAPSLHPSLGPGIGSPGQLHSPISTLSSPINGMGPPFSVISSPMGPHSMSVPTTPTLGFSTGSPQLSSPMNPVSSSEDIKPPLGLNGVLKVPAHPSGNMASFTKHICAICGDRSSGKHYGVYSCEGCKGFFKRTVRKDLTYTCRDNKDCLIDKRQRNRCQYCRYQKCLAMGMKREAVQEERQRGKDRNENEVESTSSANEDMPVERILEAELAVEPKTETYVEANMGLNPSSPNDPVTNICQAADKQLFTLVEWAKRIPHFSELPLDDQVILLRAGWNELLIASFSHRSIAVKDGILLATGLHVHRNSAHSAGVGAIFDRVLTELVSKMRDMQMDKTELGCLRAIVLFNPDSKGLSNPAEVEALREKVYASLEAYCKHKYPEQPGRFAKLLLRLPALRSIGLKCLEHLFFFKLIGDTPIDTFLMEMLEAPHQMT
Sequence (P19793 whole entry): as above
Protocol Details: RXR mammalian two-hybrid
Assay Setup: data in Figures 4 and 5 (M2H and RXRE assays)
Readout: RXR-mediated transcriptional activity

**Query** Requested read-out: RXR-mediated transcriptional activity. Entry: Cc1cc2c(cc1-c1cc(/C=C/C(=O)O)ccc1O)C(C)(C)C=CC2(C)C
**Result** consistently more active

**Query** Requested read-out: RXR-mediated transcriptional activity. Entry: Cc1cc2c(cc1-c1cc(/C=C/C(=O)O)ccc1O)C(C)(C)CCC2(C)C [Compound 11, reference compound]
**Result** consistently more active

**Query** Requested read-out: RXR-mediated transcriptional activity. Entry: Cc1ccc(/C=C/C(=O)O)cc1-c1cc2c(cc1C)C(C)(C)CCC2(C)C
**Result** consistently more active
